ASSAY_OVERVIEW: protein stability index of a GFP-peptide fusion (yeast GPS) (PSI 1-4); higher = more stable; sorted into four equal gates, so the index is relative within each strain
CONDITION: pdr5∆
Hi, to clarify the labels: Y covers protein stability index from 2 upward, N covers anything below 2.

[[record]]
sequence_string = "AALKKTRKAARPQKLRA [RPL6A]"
assigned_class = "Y"

[[record]]
sequence_string = "EDPVTVEYLTRYVAGVQ [PRE6]"
assigned_class = "Y"

[[record]]
sequence_string = "FYLMVSSLSFGPENALN [YJL039C/NUP192]"
assigned_class = "N"

[[record]]
sequence_string = "LEFYKDKFFNEVNKSEL [SIR3]"
assigned_class = "Y"

[[record]]
sequence_string = "KVLTALSRLQKSGRING [SMC4]"
assigned_class = "Y"

[[record]]
sequence_string = "ARVKAFDRHCNMVLENV [SMD2]"
assigned_class = "Y"

[[record]]
sequence_string = "LLVDQKQLNSLRRSGQI [SMD1]"
assigned_class = "Y"

[[record]]
sequence_string = "TFDLTPEDAQLLLAANT [RPS0A]"
assigned_class = "N"

[[record]]
sequence_string = "LSKINAIQLDYSTANEY [RPN3]"
assigned_class = "Y"

[[record]]
sequence_string = "AAAGGDAAAEEEKEEEA [RPP1B]"
assigned_class = "Y"

[[record]]
sequence_string = "VPRLFDLVKPKNPKFSN [SMC4]"
assigned_class = "Y"

[[record]]
sequence_string = "SVFNAELLKLLNDEYNY [YCS4]"
assigned_class = "Y"

[[record]]
sequence_string = "KNIAQCLSDYTKKISNF [YJL039C/NUP192]"
assigned_class = "Y"

[[record]]
sequence_string = "TFRRRNPYNTRSNKIKV [RPL34A]"
assigned_class = "N"

[[record]]
sequence_string = "AKPDEKKNDEVSKPAFS [YJL041W/NSP1]"
assigned_class = "Y"

[[record]]
sequence_string = "YGPPGTGKTLLAKAVAA [RPT4]"
assigned_class = "Y"

[[record]]
sequence_string = "RVVMMKYDRKVPSPTGE [RPO21]"
assigned_class = "Y"

[[record]]
sequence_string = "TTDKLRSMVRKWQTLIE [RPS1A]"
assigned_class = "Y"

[[record]]
sequence_string = "GPRAVLTRQPTEGRSRD [RET1]"
assigned_class = "Y"

[[record]]
sequence_string = "DLEWQELTSFSSQPLEP [DSN1]"
assigned_class = "Y"

[[record]]
sequence_string = "EQQWITRAQYLAFAKLV [SRP68]"
assigned_class = "N"

[[record]]
sequence_string = "PRYTYHTIFSDVCKTRF [YML031W/NDC1]"
assigned_class = "Y"

[[record]]
sequence_string = "PAPINSLSRDFVMKTRR [SNU114]"
assigned_class = "Y"

[[record]]
sequence_string = "SNRLHPPDIHPNLGPQL [GRR1]"
assigned_class = "Y"

[[record]]
sequence_string = "RETLVKTWEKVTLDFGN [SMC2]"
assigned_class = "N"

[[record]]
sequence_string = "ELGEQKCQELVTNIRRI [RRP46]"
assigned_class = "N"

[[record]]
sequence_string = "PEILRFKVYEPLLLVGL [RPS16A]"
assigned_class = "Y"

[[record]]
sequence_string = "LAAPKKLNDSQRKTVNS [POP1]"
assigned_class = "Y"

